Experiment: Differential scanning calorimetry (VP-DSC) of DSPC liposomes (MLVs) with drugs
Format: physicochemical
Parameters: unit not given here
Conditions: pH 3.6; calorimetric phase transition enthalpy; drug-to-lipid 1:5
The following compounds are shown together with reported ΔHcal values.
Could you keep your reply to the number by itself?

| Cpd smiles | ΔHcal |
| --- | --- |
| CC(=O)O[C@H]1C(=O)[C@@]2(C)[C@H]([C@H](OC(=O)c3ccccc3)[C@]3(O)C[C@H](OC(=O)[C@H](O)[C@@H](NC(=O)c4ccccc4)c4ccccc4)C(C)=C1C3(C)C)[C@]1(OC(C)=O)CO[C@@H]1C[C@@H]2O | 10.6 |
| COc1cccc2c1C(=O)c1c(O)c3c(c(O)c1C2=O)C[C@@](O)(C(=O)CO)C[C@@H]3O[C@H]1C[C@H](N)[C@H](O)[C@H](C)O1 | 9.28 |
| O=C(O)c1cn(C2CC2)c2cc(N3CCNCC3)c(F)cc2c1=O | 9.98 |
| CC[C@]1(O)C[C@H]2CN(CCc3c([nH]c4ccccc34)[C@@](C(=O)OC)(c3cc4c(cc3OC)N(C=O)[C@H]3[C@@](O)(C(=O)OC)[C@H](OC(C)=O)[C@]5(CC)C=CCN6CC[C@]43[C@@H]65)C2)C1 | 12.77 |

Exercise: I am curious: what ΔHcal value has been reported for CC[C@@]1(O)C(=O)OCc2c1cc1n(c2=O)Cc2c-1nc1ccccc1c2CCNC(C)C ?
Key: 11.81

* * *

Experiment: Differential scanning calorimetry (VP-DSC) of DSPC liposomes (MLVs) with drugs
Assay type: physicochemical
Conditions: pH 3.6; drug-to-lipid mole ratio 1:5; scan 20° C./hour; maximum peak of main phase transition
Below, each of the compounds is paired with its reported Tm value.
Unit °C implied. Number only.

In the examples that follow, each entry is paired with its recorded Tm.
| Compound | Tm (°C) |
| --- | --- |
| COc1cccc2c1C(=O)c1c(O)c3c(c(O)c1C2=O)C[C@@](O)(C(=O)CO)C[C@@H]3O[C@H]1C[C@H](N)[C@H](O)[C@H](C)O1 [doxorubicin] | 54.5 |
| CC[C@@]1(O)C(=O)OCc2c1cc1n(c2=O)Cc2c-1nc1ccccc1c2CCNC(C)C [CKD602] | 54.6 |
| CC[C@]1(O)C[C@H]2CN(CCc3c([nH]c4ccccc34)[C@@](C(=O)OC)(c3cc4c(cc3OC)N(C=O)[C@H]3[C@@](O)(C(=O)OC)[C@H](OC(C)=O)[C@]5(CC)C=CCN6CC[C@]43[C@@H]65)C2)C1 [vincristine] | 54.6 |
| CC(=O)O[C@H]1C(=O)[C@@]2(C)[C@H]([C@H](OC(=O)c3ccccc3)[C@]3(O)C[C@H](OC(=O)[C@H](O)[C@@H](NC(=O)c4ccccc4)c4ccccc4)C(C)=C1C3(C)C)[C@]1(OC(C)=O)CO[C@@H]1C[C@@H]2O [paclitaxel] | 54.5 |

Now consider a different compound.
Exercise: Request the reported Tm associated with O=C(O)c1cn(C2CC2)c2cc(N3CCNCC3)c(F)cc2c1=O [ciprofloxacin]
Key: 54.9

* * *

Experiment: Differential scanning calorimetry (VP-DSC) of DSPC liposomes (MLVs) with drugs
Assay type: physicochemical
Settings: FIGS. 1A-1D, pH 3.6, DSPC/drug mixture vs DSPC control
Measurement name: Interaction of the drug with the lipid bilayer (thermogram deviation from DSPC control)

| Cpd smiles | Test value |
| --- | --- |
| CC[C@@]1(O)C(=O)OCc2c1cc1n(c2=O)Cc2c-1nc1ccccc1c2CCNC(C)C | some interaction |
| CC[C@]1(O)C[C@H]2CN(CCc3c([nH]c4ccccc34)[C@@](C(=O)OC)(c3cc4c(cc3OC)N(C=O)[C@H]3[C@@](O)(C(=O)OC)[C@H](OC(C)=O)[C@]5(CC)C=CCN6CC[C@]43[C@@H]65)C2)C1 | some interaction |

* * *

Test: Differential scanning calorimetry (VP-DSC) of DSPC liposomes (MLVs) with drugs
Assay type: physicochemical
Conditions: pH 7.0; transition peak width at half-height; drug-to-lipid 1:5
Measurement name: ΔT½

| Compound | Test value |
| --- | --- |
| CC[C@@]1(O)C(=O)OCc2c1cc1n(c2=O)Cc2c-1nc1ccccc1c2CCNC(C)C [CKD602] | 0.42 °C |
| CC(=O)O[C@H]1C(=O)[C@@]2(C)[C@H]([C@H](OC(=O)c3ccccc3)[C@]3(O)C[C@H](OC(=O)[C@H](O)[C@@H](NC(=O)c4ccccc4)c4ccccc4)C(C)=C1C3(C)C)[C@]1(OC(C)=O)CO[C@@H]1C[C@@H]2O [paclitaxel] | 0.77 °C |

Exercise: For COc1cccc2c1C(=O)c1c(O)c3c(c(O)c1C2=O)C[C@@](O)(C(=O)CO)C[C@@H]3O[C@H]1C[C@H](N)[C@H](O)[C@H](C)O1 [doxorubicin] , what is its reported ΔT½?
Key: 0.4 °C

Exercise: Item CC[C@]1(O)C[C@H]2CN(CCc3c([nH]c4ccccc34)[C@@](C(=O)OC)(c3cc4c(cc3OC)N(C=O)[C@H]3[C@@](O)(C(=O)OC)[C@H](OC(C)=O)[C@]5(CC)C=CCN6CC[C@]43[C@@H]65)C2)C1 [vincristine] has what recorded ΔT½?
Key: 1.38 °C

* * *

Experiment: Differential scanning calorimetry (VP-DSC) of DSPC liposomes (MLVs) with drugs
Assay type: physicochemical
Settings: pH 3.6; heat capacity at phase transition peak; drug-to-lipid 1:5
Measurement name: Cpmax
// print number alone

Illustrative cases are given below, each with its answer.
| Cpd smiles | Cpmax |
| --- | --- |
| CC(=O)O[C@H]1C(=O)[C@@]2(C)[C@H]([C@H](OC(=O)c3ccccc3)[C@]3(O)C[C@H](OC(=O)[C@H](O)[C@@H](NC(=O)c4ccccc4)c4ccccc4)C(C)=C1C3(C)C)[C@]1(OC(C)=O)CO[C@@H]1C[C@@H]2O | 3.5 |
| COc1cccc2c1C(=O)c1c(O)c3c(c(O)c1C2=O)C[C@@](O)(C(=O)CO)C[C@@H]3O[C@H]1C[C@H](N)[C@H](O)[C@H](C)O1 | 7.4 |
| O=C(O)c1cn(C2CC2)c2cc(N3CCNCC3)c(F)cc2c1=O | 4.5 |

Exercise: Dear colleague, I am looking for the recorded Cpmax of the following compound: CC[C@]1(O)C[C@H]2CN(CCc3c([nH]c4ccccc34)[C@@](C(=O)OC)(c3cc4c(cc3OC)N(C=O)[C@H]3[C@@](O)(C(=O)OC)[C@H](OC(C)=O)[C@]5(CC)C=CCN6CC[C@]43[C@@H]65)C2)C1
Key: 7.1

Exercise: Would you kindly share the measured Cpmax for CC[C@@]1(O)C(=O)OCc2c1cc1n(c2=O)Cc2c-1nc1ccccc1c2CCNC(C)C ?
Key: 7.5

* * *

Test: Differential scanning calorimetry (VP-DSC) of DSPC liposomes (MLVs) with drugs
Format: physicochemical
Conditions: pH 7.0; drug-to-lipid mole ratio 1:5
Measurement name: Tm (°C)
Give your result in °C as a bare value.

| Cpd smiles | Measurement name | Readout units | Test value |
| --- | --- | --- | --- |
| CC[C@@]1(O)C(=O)OCc2c1cc1n(c2=O)Cc2c-1nc1ccccc1c2CCNC(C)C | Tm | °C | 54.43 |
| CC[C@]1(O)C[C@H]2CN(CCc3c([nH]c4ccccc34)[C@@](C(=O)OC)(c3cc4c(cc3OC)N(C=O)[C@H]3[C@@](O)(C(=O)OC)[C@H](OC(C)=O)[C@]5(CC)C=CCN6CC[C@]43[C@@H]65)C2)C1 | Tm | °C | 53.93 |
| COc1cccc2c1C(=O)c1c(O)c3c(c(O)c1C2=O)C[C@@](O)(C(=O)CO)C[C@@H]3O[C@H]1C[C@H](N)[C@H](O)[C@H](C)O1 | Tm | °C | 54.5 |

For the next question, use this compound.
Exercise: Requested field: Tm. Item: CC(=O)O[C@H]1C(=O)[C@@]2(C)[C@H]([C@H](OC(=O)c3ccccc3)[C@]3(O)C[C@H](OC(=O)[C@H](O)[C@@H](NC(=O)c4ccccc4)c4ccccc4)C(C)=C1C3(C)C)[C@]1(OC(C)=O)CO[C@@H]1C[C@@H]2O
Key: 54.07

* * *

Assay: Differential scanning calorimetry (VP-DSC) of DSPC liposomes (MLVs) with drugs
Format: physicochemical
Conditions: pH 3.6; drug-to-lipid mole ratio 1:5
From the text: Differential scanning calorimetry (DSC) is a method known in the art used to measure the amount of energy (as heat) absorbed or released by a sample as it is heated, cooled, or held at a constant temperature. As used herein, the term “DSC measurements” further includes calculations using a measured feature of the sample. An exemplary method of measuring DSC utilizes a differential scanning calorimeter. […]
Listed below: Tm values for each entry.
Express it in °C; write the number only.

In the examples that follow, each entry is paired with its recorded Tm.
| Molecule | Readout units | Tm |
| --- | --- | --- |
| O=C(O)c1cn(C2CC2)c2cc(N3CCNCC3)c(F)cc2c1=O [ciprofloxacin] | °C | 55 |
| CC[C@@]1(O)C(=O)OCc2c1cc1n(c2=O)Cc2c-1nc1ccccc1c2CCNC(C)C [CKD602] | °C | 54.7 |
| COc1cccc2c1C(=O)c1c(O)c3c(c(O)c1C2=O)C[C@@](O)(C(=O)CO)C[C@@H]3O[C@H]1C[C@H](N)[C@H](O)[C@H](C)O1 [doxorubicin] | °C | 54.6 |
| CC[C@]1(O)C[C@H]2CN(CCc3c([nH]c4ccccc34)[C@@](C(=O)OC)(c3cc4c(cc3OC)N(C=O)[C@H]3[C@@](O)(C(=O)OC)[C@H](OC(C)=O)[C@]5(CC)C=CCN6CC[C@]43[C@@H]65)C2)C1 [vincristine] | °C | 54.7 |

Note: attention shifts to another entry.
Exercise: Which Tm is reported for this molecule? CC(=O)O[C@H]1C(=O)[C@@]2(C)[C@H]([C@H](OC(=O)c3ccccc3)[C@]3(O)C[C@H](OC(=O)[C@H](O)[C@@H](NC(=O)c4ccccc4)c4ccccc4)C(C)=C1C3(C)C)[C@]1(OC(C)=O)CO[C@@H]1C[C@@H]2O [paclitaxel]
Key: 54.5
